- Test Protocol: In vivo exposure detection in SD rats (plasma, LC-MS/MS)
- Measurement Conditions: Sprague-Dawley (SD), rat, po, IG 20 mg/kg, average value
Test Readout: Tmax (h)
Could you give me the number in h? Just the number is fine.

Given item C=C(F)C(=O)N1CCc2c(c(-c3ccnc4[nH]ccc34)nn2C)C1 , the value recorded as its Tmax is 4.5

====

- Experimental Target: JAK3 kinase (Homo sapiens, UniProt P52333)
- Sequence (P52333 whole entry): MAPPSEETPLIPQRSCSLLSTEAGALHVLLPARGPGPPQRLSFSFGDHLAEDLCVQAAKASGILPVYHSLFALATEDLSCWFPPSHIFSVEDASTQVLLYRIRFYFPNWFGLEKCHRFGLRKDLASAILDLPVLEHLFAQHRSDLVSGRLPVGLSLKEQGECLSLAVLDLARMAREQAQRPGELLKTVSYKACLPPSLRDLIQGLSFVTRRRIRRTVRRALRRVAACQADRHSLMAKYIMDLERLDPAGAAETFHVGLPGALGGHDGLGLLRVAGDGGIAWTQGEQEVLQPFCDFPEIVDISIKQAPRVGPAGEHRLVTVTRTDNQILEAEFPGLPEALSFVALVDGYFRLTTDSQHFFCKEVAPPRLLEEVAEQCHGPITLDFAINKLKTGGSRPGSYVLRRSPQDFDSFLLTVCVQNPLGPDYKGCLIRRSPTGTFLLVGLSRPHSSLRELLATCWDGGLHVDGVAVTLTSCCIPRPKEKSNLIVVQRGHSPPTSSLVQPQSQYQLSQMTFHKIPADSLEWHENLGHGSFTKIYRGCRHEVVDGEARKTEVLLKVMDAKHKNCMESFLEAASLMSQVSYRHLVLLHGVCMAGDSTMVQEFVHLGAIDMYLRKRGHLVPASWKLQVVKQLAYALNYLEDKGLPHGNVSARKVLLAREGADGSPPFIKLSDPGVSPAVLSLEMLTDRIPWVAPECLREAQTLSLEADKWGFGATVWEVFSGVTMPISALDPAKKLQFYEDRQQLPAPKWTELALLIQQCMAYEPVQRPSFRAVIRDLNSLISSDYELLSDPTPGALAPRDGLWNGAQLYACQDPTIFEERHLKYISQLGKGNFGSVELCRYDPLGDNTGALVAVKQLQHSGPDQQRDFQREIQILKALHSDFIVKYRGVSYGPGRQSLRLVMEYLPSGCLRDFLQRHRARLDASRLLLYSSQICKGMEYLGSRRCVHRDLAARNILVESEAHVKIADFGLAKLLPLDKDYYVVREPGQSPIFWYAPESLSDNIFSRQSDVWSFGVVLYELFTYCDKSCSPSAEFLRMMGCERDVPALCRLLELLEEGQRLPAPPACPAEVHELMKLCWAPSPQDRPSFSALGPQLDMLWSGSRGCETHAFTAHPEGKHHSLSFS
- Test Protocol: Mobility shift assay, in vitro JAK3 kinase inhibitory activity
- Type: biochemical
- Measurement Conditions: mobility shift assay, Example 136
Test Readout: pIC50
The quantity pIC50 is defined as the negative base-10 logarithm of the molar concentration.

// C=CC(=O)N1Cc2c(-c3ncnc4[nH]ccc34)cnn2[C@@H](C)C1 : pIC50 value = 9.37

Noted for C=CC(=O)N1Cc2c(-c3ccnc4[nH]ccc34)cnn2C[C@H]1CCS(C)(=O)=O : its pIC50 reads 9.24

Item: C=CC(=O)N1Cc2c(-c3ncnc4[nH]ccc34)cnn2[C@H](C)C1 | pIC50: 9.72

Lab book: pIC50 of C=CC(=O)N1Cc2c(-c3ccnc4[nH]ccc34)nn(C(C)C)c2C[C@H]1C noted as 9.28

Kindly note the recorded pIC50 for C=C(F)C(=O)N1Cc2c(-c3ccnc4[nH]ccc34)cnn2[C@H](C)C1 , which is 8.42

Every entry's value here was drawn from patent US20260158031A1.
